This collection of values is drawn from ChEMBL document CHEMBL1145498.

# ΔTm per entry for Serine/threonine-protein kinase Chk2 (Homo sapiens)
Give bare numbers, in °C.

For orientation, consider the following solved cases.
- MOLECULE: "Nc1ncnc2c1c(I)cn2[C@@H]1O[C@H](CO)[C@@H](O)[C@H]1O"
  ΔTm, °C: 0.9
- MOLECULE: "CCOC(=O)c1cnc2oc3ccc(O)cc3c2c1-c1ccccc1"
  ΔTm, °C: 0.8
- MOLECULE: "Cc1ccc(NC(=O)c2ccc(CN3CCN(C)CC3)cc2)cc1Nc1nccc(-c2cccnc2)n1"
  ΔTm, °C: -1.1
- MOLECULE: "O=C1Cc2c([nH]c3ccc(Br)cc23)-c2ccccc2N1"
  ΔTm, °C: 6.1

Kindly give each listed record's ΔTm.
1. Cn1cc(/C=C2/C(=O)Nc3ccc(S(N)(=O)=O)cc32)c2ccccc21
2. COc1ccc(CNC(=O)Nc2ncc([N+](=O)[O-])s2)cc1
3. CN1CCc2[nH]c(=S)c(C#N)c(-c3cccs3)c2C1
4. NCCNS(=O)(=O)c1cccc2c(Cl)cccc12
5. COc1cc(/C=C/C(=O)CC(=O)/C=C/c2ccc(O)c(OC)c2)ccc1O
6. C[S+]([O-])c1ccc(-c2nc(-c3ccc(F)cc3)c(-c3ccncc3)[nH]2)cc1 (stereo unspecified)
7. CC(C)(C)n1nc(-c2cccc3ccccc23)c2c(N)ncnc21
8. COC1=C2C[C@@H](C)C[C@H](OC)[C@H](O)[C@@H](C)/C=C(\C)[C@H](OC(N)=O)[C@@H](OC)/C=C\C=C(/C)C(=O)NC(=CC1=O)C2=O

1. 10.6
2. 0.4
3. 5.3
4. 0.2
5. 5.4
6. -0.5
7. 0.3
8. 0.2

# map each molecule to its ΔTm
1. O=C1c2ccccc2-[n+]2ccc3c([nH]c4ccccc43)c21 [FASCAPLYSIN CHLORIDE]
2. O=c1ccc2ccc(O)c(O)c2o1
3. CCCCc1c(-c2ccc(O)cc2)[nH]c2nccnc12
4. O=C1Nc2ccccc2/C1=C/c1cnc[nH]1
5. N=C(N)NCCNS(=O)(=O)c1cccc2cnccc12
6. Cn1cc(C2=C(c3cn(CCCN)c4ccccc34)C(=O)NC2=O)c2ccccc21

1: 4.9; 2: -0.1; 3: 5.7; 4: 3; 5: 0.2; 6: 5.9

For each of the items listed, what is its ΔTm?
1. O=S(=O)(NCCNC/C=C/c1ccc(Br)cc1)c1cccc2cnccc12
2. O=C(Nc1cccc(Nc2nccc(Nc3cccc(C(F)(F)F)c3)n2)c1)C1CC1
3. COc1ccc(CNc2nc(N(CCO)CCO)nc3c2ncn3C(C)C)cc1

2.6
3.8
0.9

###

As an illustration, consider measured ΔTm for molecules on Casein kinase I isoform gamma-3 (Homo sapiens) (UniProt Q9Y6M4).
Sequence (Q9Y6M4 whole entry, looked up, canonical isoform): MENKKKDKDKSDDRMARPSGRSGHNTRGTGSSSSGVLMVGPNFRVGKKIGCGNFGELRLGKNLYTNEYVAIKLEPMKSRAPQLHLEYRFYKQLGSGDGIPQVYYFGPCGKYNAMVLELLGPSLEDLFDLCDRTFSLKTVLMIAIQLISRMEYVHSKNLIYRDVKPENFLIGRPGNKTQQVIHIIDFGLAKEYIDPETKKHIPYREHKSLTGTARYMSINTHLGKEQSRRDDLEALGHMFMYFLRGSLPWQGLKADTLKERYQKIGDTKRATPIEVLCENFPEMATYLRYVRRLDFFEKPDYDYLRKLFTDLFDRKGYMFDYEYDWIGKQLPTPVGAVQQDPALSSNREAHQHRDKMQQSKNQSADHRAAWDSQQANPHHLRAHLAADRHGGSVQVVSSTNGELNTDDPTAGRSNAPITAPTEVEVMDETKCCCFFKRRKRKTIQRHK

Solved cases (5 shown):
- MOLECULE: "NC(=O)c1ccc2[nH]c(-c3ccc(Oc4ccc(Cl)cc4)cc3)nc2c1"
  ΔTm: "1.3 °C"
- MOLECULE: "O=C1Nc2cc(Br)ccc2/C1=C1/Nc2ccccc2/C1=N\\O"
  ΔTm: "-1.1 °C"
- MOLECULE: "CC(C)n1cnc2c(NCc3ccccc3O)nc(NCCCO)nc21"
  ΔTm: "0.5 °C"
- MOLECULE: "Cc1ccc(NC2=CC(=O)c3sc(C)nc3C2=O)cc1"
  ΔTm: "-4.3 °C"
- MOLECULE: "NC1=NC(=O)/C(=C2\\CCNC(=O)c3[nH]c(Br)cc32)N1 [HYMENIALDISINE]"
  ΔTm: "3.5 °C"

// for each molecule below, give its ΔTm
1. COc1cc2ncnc(Nc3cccc(O)c3)c2cc1OC
2. O=c1cc(-c2ccc(O)cc2)oc2cc(O)cc(O)c12
3. O=C1c2ccccc2-c2n[nH]c3cccc1c23
4. COc1ccc2c(c1)/C(=C/c1cnc[nH]1)C(=O)N2 [SU-9516]

1: 0.8 °C; 2: 0.7 °C; 3: 2 °C; 4: 0.5 °C

Dear colleague, could you please provide ΔTm for the molecules listed below?
1. N#CCCc1ccc2c(c1)-c1[nH]c3ccc([N+](=O)[O-])cc3c1CC(=O)N2 [ALSTERPAULLONE 2]
2. CC(C)(C)c1cc(C=C2C(=O)C=CC2=O)cc(C(C)(C)C)c1O

1.6 °C
0.2 °C

###

target: Cyclin-dependent kinase 16 (Homo sapiens)
I'd appreciate it if you could label each record using ΔTm and these ranges: lower segment: < -0.4 °C; middle segment: ≥ -0.4 °C and < 0.1 °C; upper segment: ≥ 0.1 °C

// known answers, use as guide
- COMPOUND: "O=C1C(Cl)=C(N2C(=O)CCC2=O)C(=O)c2ccccc21"
  LABEL_CLASS: "upper segment"
- COMPOUND: "O=[N+]([O-])c1ccc(-c2nc(-c3ccc(F)cc3)c(-c3ccncc3)[nH]2)cc1"
  LABEL_CLASS: "lower segment"

# bin lookup: classify `O=c1cc(N2CCOCC2)oc2c(-c3ccccc3)cccc12` by its ΔTm
middle segment

Proceed to O=C1c2ccccc2-[n+]2ccc3c([nH]c4ccccc43)c21 [FASCAPLYSIN CHLORIDE]
lower segment

###

molecular target: Cyclin-dependent kinase-like 1 (Homo sapiens)
Quick rule for you: ΔTm under 0.4 °C gets true, anything else gets false.

Example entries begin here.
- COMPOUND: "Cn1cc(C2=C(c3cn(CCCN)c4ccccc34)C(=O)NC2=O)c2ccccc21"
  MEASURED_ON: "Cyclin-dependent kinase-like 1 (Homo sapiens)"
  LABEL_CLASS: "false"
- COMPOUND: "Nc1cc2ncnc(Nc3cccc(Br)c3)c2cc1N"
  MEASURED_ON: "Cyclin-dependent kinase-like 1 (Homo sapiens)"
  LABEL_CLASS: "false"

Regarding `O=C1c2ccccc2-c2n[nH]c3cccc1c23` , kindly confirm whether its ΔTm is beneath 0.4 °C.
false

Next record, please: Oc1cc(O)cc(/C=C/c2ccc(O)c(O)c2)c1 [PICEATANNOL]
true

Again, but for `O=c1c(-c2ccc(O)cc2)coc2cc(O)cc(O)c12`
true

###

molecular target: cAMP-dependent protein kinase catalytic subunit alpha (Homo sapiens)
Provide the reported ΔTm of each item.
One number for each entry, in °C.

Reference set (8 entries):
- COMPOUND: "Cc1ccc(NC2=CC(=O)c3sc(C)nc3C2=O)cc1"
  MEASURED_ON: "cAMP-dependent protein kinase catalytic subunit alpha (Homo sapiens)"
  ΔTm / °C: -0.4
- COMPOUND: "NCCNc1ncc(C(N)=O)c(Nc2cccc(C(F)(F)F)c2)n1"
  MEASURED_ON: "cAMP-dependent protein kinase catalytic subunit alpha (Homo sapiens)"
  ΔTm / °C: 2.3
- COMPOUND: "CCN(CC)CCNC(=O)c1c(C)[nH]c(/C=C2\\C(=O)Nc3ccc(Cl)cc32)c1C [SU-11652]"
  MEASURED_ON: "cAMP-dependent protein kinase catalytic subunit alpha (Homo sapiens)"
  ΔTm / °C: 2
- COMPOUND: "CN(C)c1ncnc2nc[nH]c12 [DIMETHYLADENINE]"
  MEASURED_ON: "cAMP-dependent protein kinase catalytic subunit alpha (Homo sapiens)"
  ΔTm / °C: 0.7
- COMPOUND: "O=C1Cc2c([nH]c3ccc([N+](=O)[O-])cc23)-c2ccccc2N1"
  MEASURED_ON: "cAMP-dependent protein kinase catalytic subunit alpha (Homo sapiens)"
  ΔTm / °C: 1.6
- COMPOUND: "O=C1NC(=O)c2c1c1c3ccccc3[nH]c1n1cncc21 [ISOGRANULATIMIDE]"
  MEASURED_ON: "cAMP-dependent protein kinase catalytic subunit alpha (Homo sapiens)"
  ΔTm / °C: 5.9
- COMPOUND: "COc1cc(/C=C/C(=O)CC(=O)/C=C/c2ccc(O)c(OC)c2)ccc1O [CURCUMIN]"
  MEASURED_ON: "cAMP-dependent protein kinase catalytic subunit alpha (Homo sapiens)"
  ΔTm / °C: 3.4
- COMPOUND: "Cc1cc2ncc(-c3ccccc3)nc2cc1C"
  MEASURED_ON: "cAMP-dependent protein kinase catalytic subunit alpha (Homo sapiens)"
  ΔTm / °C: 1.1

Provide the reported ΔTm of each entry below, same order.
1. Cc1ccc(NC(=O)c2ccc(CN3CCN(C)CC3)cc2)cc1Nc1nccc(-c2cccnc2)n1
2. CN(C)CC1CCn2c(c(C3=C(c4c[nH]c5ccccc45)C(=O)NC3=O)c3ccccc32)C1 (stereo not given)

0.8
2.2

###

A short record of ΔTm observed with Calcium/calmodulin-dependent protein kinase type II subunit beta (Homo sapiens) follows.
Answers are plain numbers, in °C.

- SMILES_REPR: "CCN1/C(=C/C(C)=O)Sc2ccc(OC)cc21"
  ΔTm [°C]: 0.3
- SMILES_REPR: "Cc1cc2ncc(-c3ccccc3)nc2cc1C"
  ΔTm [°C]: 0.8
- SMILES_REPR: "COc1cccc(-c2cc(=O)c3ccccc3o2)c1N"
  ΔTm [°C]: 0

For each of the molecules below, note its ΔTm.
1. O=C1Cc2c([nH]c3ccc([N+](=O)[O-])cc23)-c2ccccc2N1
2. O=C(O)c1cc(NCc2cc(O)ccc2O)ccc1O
3. N#C/C(=C1/Nc2ccccc2S1)c1ccnc(NCCc2cccnc2)n1
4. Cn1cc(C2=C(c3cn(CCCN)c4ccccc34)C(=O)NC2=O)c2ccccc21

[0.3, 0, 1.8, 1.7]
